- Tested on: 22RV1
- Procedure details: Crystal violet proliferation assay, 22RV1
- Assay type: cell-based
- Run conditions: Homo sapiens; 22RV1, AR positive; 72 h treatment; mean

| Smiles representation | IC50 [nM] |
| --- | --- |
| Cc1c(Cl)cccc1NC(=O)c1sc2nc3c(cc2c1N)C(=O)CCC3 | 100 |
| COc1cccc(NC(=O)c2sc3nc4c(cc3c2N)C(=O)CCC4)c1 | 185 |
| Nc1c(C(=O)Nc2cccc(Cl)c2)sc2nc3c(cc12)CCCC3 | 521 |
| Nc1c(C(=O)Nc2cccc(Br)c2)sc2nc3c(cc12)C(=O)CCC3 | 499 |
| Nc1c(C(=O)Nc2cccc(Cl)c2)sc2nc3c(cc12)C(=O)CCC3 | 306 |

----------
- System: DU145
- Procedure details: Crystal violet proliferation assay, DU145
- Assay type: cell-based
- Run conditions: Homo sapiens, DU-145; DU145, AR negative; 72 h treatment; mean
Parameter IC50: see the listing below.

| Molecule | Target | Units text | IC50 |
| --- | --- | --- | --- |
| COc1cccc(NC(=O)c2sc3nc4c(cc3c2N)C(=O)CCC4)c1 [DJ144] | DU145 | µM | 0.271 |
| Nc1c(C(=O)Nc2cccc(Br)c2)sc2nc3c(cc12)C(=O)CCC3 [DJ145] | DU145 | µM | 1.96 |
| Cc1c(Cl)cccc1NC(=O)c1sc2nc3c(cc2c1N)C(=O)CCC3 [DJ160] | DU145 | µM | 0.0839 |
| Nc1c(C(=O)Nc2cccc(Cl)c2)sc2nc3c(cc12)CCCC3 [DJ154] | DU145 | µM | 0.66 |
| Nc1c(C(=O)Nc2cccc(Cl)c2)sc2nc3c(cc12)C(=O)CCC3 [DJ97] | DU145 | µM | 1.4 |

----------
Parameter pIC50: see the listing below.
- System: LNCaP
- Procedure details: Crystal violet proliferation assay, LNCaP
- Type: cell-based
- Run conditions: Homo sapiens, 72 h, AR positive, 72 h treatment, mean
pIC50: −log10 of the molar value.

| Compound | Value qualifier | pIC50 |
| --- | --- | --- |
| Nc1c(C(=O)Nc2cccc(Cl)c2)sc2nc3c(cc12)C(=O)CCC3 [DJ97] | = | 6.32 |
| Cc1c(Cl)cccc1NC(=O)c1sc2nc3c(cc2c1N)C(=O)CCC3 [DJ160] | > | 7.30 |
| Nc1c(C(=O)Nc2cccc(Cl)c2)sc2nc3c(cc12)CCCC3 [DJ154] | = | 6.35 |
| COc1cccc(NC(=O)c2sc3nc4c(cc3c2N)C(=O)CCC4)c1 [DJ144] | = | 7.23 |
| Nc1c(C(=O)Nc2cccc(Br)c2)sc2nc3c(cc12)C(=O)CCC3 [DJ145] | = | 6.57 |

----------
Parameter IC50: see the listing below.
- Tested on: PC3
- Procedure details: Crystal violet proliferation assay, PC3
- Assay type: cell-based
- Run conditions: Homo sapiens, 72 h, PC3, AR negative; 72 h treatment; mean

| Smiles representation | Value qualifier | IC50, nM |
| --- | --- | --- |
| Nc1c(C(=O)Nc2cccc(Br)c2)sc2nc3c(cc12)C(=O)CCC3 | = | 673 |
| Nc1c(C(=O)Nc2cccc(Cl)c2)sc2nc3c(cc12)CCCC3 | = | 723 |
| Nc1c(C(=O)Nc2cccc(Cl)c2)sc2nc3c(cc12)C(=O)CCC3 | = | 573 |
| COc1cccc(NC(=O)c2sc3nc4c(cc3c2N)C(=O)CCC4)c1 | = | 214 |
| Cc1c(Cl)cccc1NC(=O)c1sc2nc3c(cc2c1N)C(=O)CCC3 | < | 50 |
